Tested on: 993429-296-R-J1-PDC complex spheroid growth, percent test/control;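 note: spheroids exposed to compounds for seven days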
Assay: Anticancer human tumor 993429-296-R-J1-PDC patient-derived uterine sarcoma cell line growth inhibition [Asc]
Settings: curve of first compound; second compound 0.1 µM
Exercise: state measured pIC50 for each of the compounds provided.
Answers are plain numbers, as −log10 of the molar value.

compound: C#Cc1c(F)ccc2cc(O)cc(-c3ncc4c(N5CC6CCC(C5)N6)nc(OCC56CCCN5CC(F)C6)nc4c3F)c12 (stereo not drawn) + CNC(C)C(=O)NC1CN(S(=O)(=O)c2cccc(S(=O)(=O)N3CCC4CCC(C(=O)NC(c5ccccc5)c5ccccc5)N4C(=O)C(NC(=O)C(C)NC)C3)c2)CCC2CCC(C(=O)NC(c3ccccc3)c3ccccc3)N2C1=O
system: 993429-296-R-J1-PDC complex spheroid growth, percent test/control;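 note: spheroids exposed to compounds for seven days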
pIC50: 5.58

Next item in the queue.
In: Look up pIC50 for this compound: O=C(c1cc(Cc2n[nH]c(=O)c3ccccc23)ccc1F)N1CCN(C(=O)C2CC2)CC1 + Cc1c(S(C)(=O)=O)c(-c2cc(F)cc(N3CCN(c4ccc(NS(=O)(=O)c5ccc(NC(CCN6CCC(C(=O)OCCCP(=O)(O)O)CC6)CSc6ccccc6)c(S(=O)(=O)C(F)(F)F)c5)cc4)CC3)c2)c(-c2ccc(Cl)cc2)n1C(C)C
Out: 6.03
